Give measured TGI for each item. Keep answers brief.
- System: SF-539 CNS
- Measurement description: NCI tumour cell line growth inhibition, 48 h

Study these solved cases before continuing.
Molecule	Assay target	TGI
CC(C)NC(=O)CCN(C(=O)O)S(=O)(=O)c1ccc(NC(=O)c2ccccc2)cc1	SF-539 CNS	67.5 µM
COC(=O)C1=C(C(=O)OC)SC2(S1)C(C(=O)OC)=C(C(=O)OC)Sc1c2ssc1=Nc1ccc(Cl)cc1	SF-539 CNS	1.68 µM
CCOC(=O)c1c2c(c(O)c3ccccc3c(O)n(Cc3ccccc3)c1C)C(=O)C=CC2=O	SF-539 CNS	> 100 µM
NCCNCc1c2ccccc2c(CNCCN)c2ccccc12	SF-539 CNS	29.5 µM
COc1cc(/C=C2\C[C@H]3[C@@H]4CC=C5C[C@@H](O)CC[C@]5(C)[C@H]4CC[C@]3(C)[C@H]2O)ccc1OCCCn1ccnc1	SF-539 CNS	2.09 µM

Provide TGI values for the following items, in order.
1. O=c1ssc(Cl)c1Cl
2. CCN1Cc2nc3sc(C)c(C)c3c(=O)n2C=C1C
3. CN1CCC2(CC1)C(=NC1CCCCC1)NC(=S)N2c1ccccc1

a:
1: > 10 µM; 2: 34.4 µM; 3: > 100 µM

Provide TGI values for the following items, in order.
1. c1ccc2c(c1)CCc1[nH]c3c(c1-2)-c1ccccc1CC3
2. CCCCCCCCCCCCOC1C(CNC(=O)C2OC3OC(C)(C)OC3C2NC(=O)Nc2ccc(CC(=O)NC(Cc3ccccc3)C(=O)O)cc2)OC2OC(C)(C)OC21 (stereo not drawn)
3. CC1C(OC2O[C@@H]3O[C@@]4(C)CC[C@H]5[C@H](C)CC[C@@H](C2C)[C@@]35O4)O[C@@H]2O[C@@]3(C)CC[C@H]4[C@H](C)CC[C@@H]1[C@@]24O3 (stereo partly drawn)

a:
1: > 100 µM; 2: > 25 µM; 3: > 50 µM
